tested on: ACHN renal; test: NCI-60 one-dose screen, 48 h; details: 10 µM unless noted
About 83,000 compounds went through this panel and 20% of them were active in at least one assay; those are over-represented in the sample as a whole. Activity calls are given as the source filed them. Rule for the calls: active = growth percent below 10; inactive = the rest.
Pick one and only one: Yes = active, No = inactive

| Molecule | Target entity | Label value |
| --- | --- | --- |
| CN1CCN(c2ccc(N3Cc4ccccc4OC4=C3C(=O)c3c(O)ccc(O)c3C4=O)cn2)CC1 | ACHN renal | Yes |
| O=C(/C=C/c1cn(-c2ccccc2)nc1-c1cccc(Nc2ccnc3cc(Cl)ccc23)c1)c1ccc2c(c1)OCO2 | ACHN renal | No |
| O=C(/C=C/c1cc([N+](=O)[O-])ccc1Cl)c1ccccc1 | ACHN renal | No |
| N#Cc1ccc(NC(=O)Nc2nc3ccc(OC(F)(F)F)cc3s2)cc1 | ACHN renal | Yes |
| NCCCOc1cc2ccccc2cc1C(=O)NCCCOc1cc2ccccc2cc1C(=O)Nc1ccc(Cl)cc1O | ACHN renal | Yes |

Prompt: Status in this test for O=C1C(Cl)=C(N/N=c2/[nH][nH]/c(=N/NC3=C(Cl)C(=O)c4ccccc4C3=O)c3ccccc23)C(=O)c2ccccc21 ?
Completion: No

Prompt: Each molecule tested received a call. Report the one for COc1ccc(/C(=C\c2cc(OC)c(OC)c(OC)c2)C(=O)N2CCNCC2)cc1 .
Completion: No

Prompt: What call does the record list for c1ccc2c(c1)cnc1ccccc12 ?
Completion: No

Prompt: Short answer needed: outcome of this test for COc1ccc(C(=O)C(C#N)c2cc(OC)c(OC)c(OC)c2)cc1 (centres undefined) ?
Completion: No

====

test system: UACC-62 melanoma; assay: NCI-60 one-dose screen, 48 h; settings: 10 µM unless noted
The panel holds about 83,000 compounds, 20% with a hit somewhere; the sample as a whole holds those more often. Calls of active or inactive are those of the source. Rule for the calls: active = growth percent below 10; inactive = the rest.
Hello, when you answer, please use one of the following outcomes: 1.0 (active), 0.0 (inactive)

As a guide, the following entries are already answered.
| Compound | Label value |
| --- | --- |
| O=S(=O)(NCC[C@@H]1C[C@H]1c1ccc2ccccc2c1)c1ccc(C(F)(F)F)cc1 | 0.0 |
| Fc1cnccc1-c1nc2ccc3[nH]ncc3c2c2c1CCCC2 | 0.0 |
| CCCOC(=O)C1c2cc3c(cc2CC(C)C1C(=O)OCCC)OCO3 (stereo not given) | 0.0 |
| COc1ccc([C@@H]2[C@@H](Cl)C(=O)N2c2cc(OC)c(OC)c(OC)c2)cc1C | 0.0 |
| COc1ccc2[nH]c(C(=O)OCc3ccc4c(Br)cc(Br)c(O)c4n3)cc2c1 | 1.0 |

Prompt: Outcome? Cc1cc(C)c2c(n1)sc1c(Nc3ccc(Cl)cc3Cl)ncnc12
Completion: 0.0

Prompt: For COc1cc(-c2csc(NC(=O)Nc3cccc(C(F)(F)F)c3)n2)cc(OC)c1OC , what call appears in the results of this test?
Completion: 0.0

Prompt: Write down the call the test reported for this compound. Item: CSCCC1NC(=O)C(C(C)=Nc2ccccc2)=C1O (stereo not given)
Completion: 0.0

Prompt: Per the assay record, what outcome was assigned to O=c1[nH]c2cc(Cl)c(Cl)cc2o1 ?
Completion: 0.0

Prompt: Recorded test call requested for COc1ccc2[nH]cc(C(c3ccc(Cl)cc3)N3CCCC3)c2c1 (stereo not given)
Completion: 0.0

Prompt: Which result was noted for this compound in the test: Cc1ccc(Nc2nc(NCCO)c3ccccc3n2)cc1C
Completion: 0.0

Prompt: I'd appreciate the recorded outcome for O=C1/C(=C\c2cccn2Cc2ccc(F)cc2)c2ccccc2N1c1c(Cl)cccc1Cl from this test.
Completion: 0.0

Prompt: Hi team, can someone confirm the assay call for COC(=O)/C=C/c1cc(OC(C)=O)c2c(c1)[C@@H](C(=O)OC)[C@H](c1ccc(OC(C)=O)c(OC(C)=O)c1)O2 ?
Completion: 0.0

====

tested on: NCI-H460 lung; test: NCI-60 one-dose screen, 48 h (100 = growth as untreated, 0 = no growth, -100 = all killed); details: 10 µM unless noted
Compounds without any hit were thinned out: in the full panel of roughly 83,000, 20% have a hit. Active and inactive are the calls of the source. How the source made its calls: active means growth percent below 10; inactive means the rest.
Readout type: growth

Prompt: Requested read-out: growth. Entry: COc1cc(NC(C)CCCN)c2ncccc2c1Oc1ccc(Cl)cc1 (stereo unspecified)
Completion: 83.8% (inactive)

Prompt: What growth value was documented for this molecule, Cc1cc2nc3c(=O)[nH]c(=O)nc-3n(CC=O)c2cc1C ?
Completion: 106% (inactive)

Prompt: Param item = N#Cc1ccc(NC(=O)Nc2nc3ccc(OC(F)(F)F)cc3s2)cc1 ; retrieve measured growth.
Completion: -3.29% (active)

Prompt: Entry under review: Clc1ncnc2scc(C3COc4ccccc4O3)c12 (stereo unspecified) . Reported growth?
Completion: 106% (inactive)

Prompt: Entry CC1CCN(Cc2ccc(NC(=O)c3cc4ccc5cccnc5c4[nH]3)cc2)CC1 : reported growth = ?
Completion: 8.35% (active)

Prompt: Endpoint output: growth of O=c1[nH]c2cc(Cl)c(Cl)cc2o1 . Value?
Completion: 109% (inactive)

Prompt: Entry O=C1Nc2ccccc2/C1=C/c1c[nH]c2ccccc12 has what growth?
Completion: 88.7% (inactive)

Prompt: Entry COc1cc(-c2n/c(=C\c3c(O)[nH]c4cc(Cl)ccc34)cc3c2=Nc2ccccc2-3)cc(OC)c1OC : reported growth = ?
Completion: 59.7% (inactive)

Prompt: Could you share which growth value was measured for C=CCn1c(SCC(=O)Nc2ccc(/C(C)=N\O)cc2)nnc1-c1cc(-c2ccccc2)nc2ccccc12 ?
Completion: 52.1% (inactive)

Prompt: Look up growth for this molecule: c1ccc(-c2[nH]c3ccccc3c2-c2ccccc2)cc1
Completion: 82.5% (inactive)

Prompt: Find the recorded growth belonging to Fc1cnccc1-c1nc2ccc3[nH]ncc3c2c2c1CCCC2 and report it.
Completion: 25.8% (inactive)

Prompt: Quick check: growth of O=c1cc(N2CCOCC2)oc2c(-c3ccc4c(c3)OCCO4)csc12 ?
Completion: 22% (inactive)

Prompt: Which growth value belongs to O=C(Nc1ccc(Oc2ccc(NC(=O)Nc3ccccc3Cl)cc2)cc1)Nc1ccccc1Cl ?
Completion: 30.2% (inactive)

Prompt: Fill in: growth of CCCCn1c(C)nc2cc(Nc3nc(Cl)nc4nc[nH]c34)ccc21 is ___
Completion: 84.7% (inactive)

Prompt: I'd like to know its growth. The molecule in question is CN1CCN(Cc2ccc(NC(=O)c3cnc(F)c(C#Cc4cnc(N)c5ncccc45)c3)cc2C(F)(F)F)CC1
Completion: 13.1% (inactive)

Prompt: Look up growth for this molecule: NCCCOc1cc2ccccc2cc1C(=O)NCCCOc1cc2ccccc2cc1C(=O)Nc1ccc(Cl)cc1O
Completion: -72.3% (active)

Prompt: So what does the record say about growth for COc1ccc(-c2nn(-c3cccc(Cl)c3)cc2/C=C2\C(=N)N(c3ccccc3)N=C2N)cc1 ?
Completion: 6.92% (active)

Prompt: Query: growth; subject: COc1cc2c(cc1OC)C(=O)C(Br)CC2 (stereo unspecified)
Completion: 75% (inactive)

Prompt: Please give the measured growth for this molecule: CCC(=O)NC(O)C(Cl)(Cl)C(C)Cl (stereo unspecified)
Completion: 109% (inactive)

Prompt: growth lookup needed for COc1ccc(/C(=C\c2ccc3c(c2)OCO3)C(=O)Nc2nc3ccccc3s2)cc1 , thanks.
Completion: 110% (inactive)

Prompt: Could you tell me which growth is on file for COc1ccc2[nH]c(O)c(/C=c3/ccc4c(c3)N=C(c3ccc(C(F)(F)F)cc3)N=4)c2c1 ?
Completion: 53.5% (inactive)

====

Test system: NCI-H522 lung
Assay: NCI-60 one-dose screen, 48 h (100 = growth as untreated, 0 = no growth, -100 = all killed)
Conditions: 10 µM unless noted
Experimental: Growth inhibition of the NCI-H522 human Non-Small Cell Lung tumor cell line is measured as a screen for anti-cancer activity. Cells are grown in 96 well plates and exposed to the test compound for 48 hours. Compounds are tested at a single concentration, which is 10^-5 M for most compounds. The reported endpoint is percent growth (GI% or GIPRCNT), where numbers from 0 - 100% represent growth inhibition, and numbers from -100% - 0 represent cell death. […]
About 83,000 compounds went through this panel and 20% of them were active in at least one assay; those are over-represented in the sample as a whole.
growth values for the molecules below.
Answer in %, number only, no unit symbol.

Prompt: What measured growth goes with Cc1ccc2oc(=O)cc(-c3nc4ccc([N+](=O)[O-])cc4[nH]3)c2c1 ?
Completion: 36

Prompt: Which growth is listed for C=C(C)c1ccc(/C=N/NC(N)=S)cc1 ?
Completion: 103

Prompt: Param item = Cc1n(Cc2ccc3ccccc3n2)cc[n+]1Cc1ccc2ccccc2c1 ; retrieve measured growth.
Completion: 3.95

Prompt: State the recorded growth for this entry: COc1ccc(-c2nsc3c2NC(=O)CC3c2ccc3c(c2)OCO3)cc1 (centres undefined)
Completion: -30.1

Prompt: So what's the measured growth for this one? C#CC[C@@H]1C[C@]2(C)[C@H]3CC[C@@H]4[C@H]5C(C(=C)C)CC[C@]5(C(=O)NCCCCCCCCN)CC[C@@]4(C)[C@]3(C)CC[C@H]2C(C)(C)[C@H]1OC(C)=O (some centres undefined)
Completion: 88.1

Prompt: So what does the record say about growth for OC(c1cc2c(Cl)cc(Cl)cc2c2cc(C(F)(F)F)ccc12)C1CCCCN1 (centres undefined) ?
Completion: -83.9

Prompt: Would you mind telling me what growth value was observed for CCCc1n(Cc2ccc3ccccc3n2)cc[n+]1Cc1ccc2ccccc2c1 ?
Completion: -0.784

Prompt: Reported growth, molecule O=C(Nc1cccc(Cl)c1)Nc1cc(C(F)(F)F)ccc1Cl : ____
Completion: -26.9

Prompt: Form field: reported growth of CC(=O)[C@@]1(O)[C@H](C)C[C@H]2[C@@H]3C=C(C)C4=Cc5c(cnn5-c5ccccc5)C[C@]4(C)[C@H]3[C@@H](O)C[C@@]21C
Completion: -2.67

Prompt: Give its growth value. Item: Oc1ccc(Nc2ncnc3c2sc2ncccc23)cc1
Completion: 33.6

Prompt: Returns the measured growth for the input molecule. Input: COc1cc(C2CC(c3ccc(Cl)cc3)=NN2C=O)ccc1OS(=O)(=O)c1ccc(C)cc1 (centres undefined)
Completion: 82.7

Prompt: Quick one: growth of COc1ccc2cc(-c3nc(C)c(C(C)=O)c(-c4ccc(C)cc4)n3)ccc2c1 ?
Completion: 81.3

Prompt: growth for Cc1cc(O)c(C2=NN(c3ccc(S(N)(=O)=O)cc3)C(c3ccc(Cl)cc3)C2)c(C)c1Cl (centres undefined) ?
Completion: 57.7

Prompt: Return reported growth; argument: COc1ccc(/C(=C\c2ccc3c(c2)OCO3)C(=O)Nc2nc3ccc(F)cc3s2)cc1OC
Completion: 94.2

Prompt: # query: growth of entry Cc1c(-c2ccc(-c3ccccc3F)cc2)nc2ccc(F)cc2c1C(=O)O
Completion: 34.3

Prompt: Please look up its growth: CC(=O)N[C@@H](CCC(N)=O)C(=O)O
Completion: 103

Prompt: Which growth is reported for this molecule? C=CCN(CCOC(=O)c1ccc([N+](=O)[O-])cc1)CCOC(=O)c1ccc([N+](=O)[O-])cc1
Completion: 95.3

Prompt: Fill in: growth of CCOC(=O)c1ccc(NCCC(=O)O)cc1 is ___
Completion: 91.3

Prompt: Consider the molecule COc1cc2nccc(Oc3ccc(NC(=O)C4(C(=O)Nc5c(F)cc(F)cc5F)CC4)cc3)c2cc1Oc1ccc(N)cn1 and give its measured growth.
Completion: 55
